Values compiled from patent US20070110804A1.

- assay: Formation of a low-solubility polymer/drug complex (gel) on mixing polyanion sodium salt with the salt of the active ingredient
- assay.conditions: mixing sodium salt of CMC-L (low viscosity carboxymethylcellulose) and salt of the active ingredient
reported.property: complex of low solubility forms (yes/no), polymer CMC-L

The following molecules have reported results that may help.
>  <molecule>
C[C@H]1c2cccc(O)c2C(=O)C2=C(O)[C@]3(O)C(=O)C(C(N)=O)=C(O)[C@@H](N(C)C)[C@@H]3[C@@H](O)[C@@H]21 [Doxycycline]

>  <assay.result>
yes

$$$$
>  <molecule>
CCCCNc1ccc(C(=O)OCCN(C)C)cc1 [Tetracaine]

>  <assay.result>
yes

$$$$
>  <molecule>
COc1cccc2c1C(=O)c1c(O)c3c(c(O)c1C2=O)C[C@@](O)(C(=O)CO)C[C@@H]3O[C@H]1C[C@H](N)[C@H](O)[C@H](C)O1 [Doxorubicin]

>  <assay.result>
yes

$$$$
>  <molecule>
CCCCOc1cc(C(=O)NCCN(CC)CC)c2ccccc2n1 [Dibucaine]

>  <assay.result>
yes

$$$$
>  <molecule>
O=C1CC[C@@]2(O)[C@H]3Cc4ccc(O)c5c4[C@@]2(CCN3CC2CC2)[C@H]1O5 [Naltrexone]

>  <assay.result>
no

$$$$

Note: attention shifts to another entry.
Looking up CCC(=O)C(CC(C)N(C)C)(c1ccccc1)c1ccccc1 (stereo not drawn) [Methadone] , I see its complex of low solubility forms (yes/no), polymer CMC-L listed as no
